Please respond with reported IC50 (read off the curve) for every item in the list.
Biological target: recombinant human KLK5 (human) (UniProt Q9Y337)
Sequence (Q9Y337 67-293): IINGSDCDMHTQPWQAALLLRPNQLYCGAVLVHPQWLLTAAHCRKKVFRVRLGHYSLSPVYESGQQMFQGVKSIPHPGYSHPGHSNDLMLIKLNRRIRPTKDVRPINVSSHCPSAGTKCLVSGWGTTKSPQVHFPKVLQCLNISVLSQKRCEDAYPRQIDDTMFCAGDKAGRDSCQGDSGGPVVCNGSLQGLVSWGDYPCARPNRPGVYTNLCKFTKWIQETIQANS
Experiment: Kiapp assay curve, 0.250 nM KLK5, Z-VPR-pNA
Please answer using the number first and the unit second.

Input line: Quick check: IC50 (read off the curve) of 9H5 (antibody, V domains shown) VH: QSVKESEGGLFKPTDNLTLTCTVSGFSLSSYGVSWVRQAPGNGLEYIGFIGSGGFAYYASWAKSRSTITRNTNLNTVTLKMTSLTAADTATYFCARDDVGGGKSLDIWGPGTVVTVSV VL: NIVMTQTPASVEAAVGGTVTINCQASQSISSYLSWYQQKSGQRPKLLIFSASTLASGVPSRFTGSGSGTQFTLTISDLQCADAATYYCHQDYTSSNVDNTFGGGTEVVVK ?
Output line: 0.2 nM

Input line: Also 9F2 (antibody, V domains shown) VH: QSVKESEGGLFKPTDNLTLTCTVSGFSLSSYGVSWVRQAPGNGLEYIGFIGSGGSPYYASWAKSRSTITRNTNLNTVTLKMTSLTAADTATYFCARDDVGGGKSLDIWGPGTLVTVSS VL: NIVMTQTPASVEVAVGGTVIIKCQASQSISNYLSWYHQKSGQRPRLLIYSASTLASGVPSRFKGSGSGTQFTLTISDLECADAATYYCHQDYTSNSVDNTFGGGTEVVVK , if possible.
Output line: 0.2 nM

Input line: How about 8B7 (antibody, V domains shown) VH: QSVKESEGGLFKPTDNLTLTCTVSGFSLSNYGVTWVRQAPGNGLEYIGFIGSSGSAYYASWAKSRSTITRNTNLNTVTLKMTSLTAADTATYFCARDDVGGGKSLDIWGPGTLVTVSS VL: NIVMTQTPASVEVAVGGTVTIKCQASQSIGSYLSWYQQKPGQPPKLLIYDASNLASGVPSRFKGSGSGTQFTLSISDLECADAATYYCHQDYTSNNVDNTFGGGTEVVIK ?
Output line: 0.2 nM

Input line: Next entry: 9H3 (antibody, V domains shown) VH: QSVKESEGGLFKPTDTLTLTCTVSGFSLSGYGVSWVRQAPGKGLEYIGFIGSGGSAYYASWAKSRSTITRNTNLNTVTLKMTRLTAADTATYFCARDNVGGDMSLDIWGPGTLVTVSS VL: DIVMTQTPASVSEPVGGTVTIKCQASQNINNYLSWYQQKPGQPPKQLIYAASTLASGVPSRFKGSGSGTQFTLTISDLECADAATYYCHQDYTSNNVDNTFGGGTEVVVK
Output line: 0.1 nM

Input line: Cool, now 3-3F5 (antibody, V domains shown) VH: QSVKESEGGLFKPTDTLTLTCTVSGFSLNDYGVSWVRQAPGNGLEWIGAIGSSGVAWYANWAKGRSTITRNTNLNTVTLKMASLTAADTATYFCARDRDYGYRADDATSGMDLWGPGTLVTVSS VL: AYDMTQTPASVEAAVGGTVTIKCQASESIGNALAWYQQKPGQPPKLLIYDASDLASGVPSRFKGSGSGTQFTLTISGVECADAATYYCQQGDSHNNVDNIFGGGTEVVVK
Output line: 0.07 nM

Input line: Follow-up entry: 10H3 (antibody, V domains shown) VH: QSVKESEGGLIKPTDTLTLTCTVSGFSLSTFAINWVRQAPGNGLEWIGAIGRGGSAYYASWAKSRSTITKNTNLNTVTLKMTRPTAADTATYFCARENAGSGWGELDIWGPGTLVTVSS VL: AYEMTQTPASVEVAVGGTVTINCQASESISSDLAWYQQKPGQRPKLLIYAASTLASGVPSRFKGSGSGTEFTLSISGVQCADAATYYCQQGYTWNNVDNVFGGGTEVVVK
Output line: 0.3 nM

Input line: Try this binder next: 9B6 (antibody, V domains shown) VH: QSVKESEGGLFKPTDNLTLTCTVSGFSLSNYGVTWVRQAPGNGLEYIGFIGSGGSAYYASWAKSRSTITRNTNLNTVTLKMTSLTAADTATYFCARDDVGGGKSLDIWGPGTLVTVSS VL: NIVMTQTPASVEVAVGGTVVIKCQASQNIGDYLSWYQQKPGQRPKLLIYSASTLASGVPSRFKGSGSGTQFTLTISDLECADAATYYCHQDYTSNDVENTFGGGTEVVVK
Output line: 0.1 nM

Input line: Now consider 10C8 (antibody, V domains shown) VH: QSVKESEGGLFKPTDNLTLTCTVSGFSLSSYGVSWVRQAPGNGLEYIGFIGSGGFAYYASWAKSRSTITRNTNLNTVTLKMTSLTAADTATYFCARDDVGGGRSLDIWGPGTVVTVSS VL: NIVMTQTPASVEVAMGGTVIIKCQASQSISTYLSWYQQKPGQPPKLLIYSASTLASGVSSRFEGSGSGTQFTLTISGVQCADAATYYCHQDYTSNNVDNTFGGGTEVVVK .
Output line: 0.2 nM

Data credit: patent US20200040103A1
